Test system: Penicillium digitatum
Experiment: Fungicidal activity against Penicillium digitatum assessed as fungal inhibitory rate at 16 ug/ml relative to control
Assay type: functional
Labels assigned by inhibition at 16 µg/mL range: bucket 1 = under 40%, bucket 2 = from 40% up to 70%, bucket 3 = 70% and over

The following compounds have reported results that may help.
>>> cat("COC(=O)C1=C(N)OC2=C(CN(C)C/C2=C\\c2ccc(Br)s2)C1c1ccc(Br)s1 (stereo not drawn)")
"bucket 1"
>>> cat("CN1CC2=C(OC(N)=C(C#N)C2c2ccc(Cl)s2)/C(=C/c2ccc(Cl)s2)C1 (stereo not drawn)")
"bucket 2"
>>> cat("Cc1ccc(/C=C2\\CN(C)CC3=C2OC(N)=C(C#N)C3c2ccc(C)o2)o1 (stereo not drawn)")
"bucket 3"
>>> cat("COC(=O)C1=C(N)OC2=C(CN(C(=O)c3cccs3)C/C2=C\\c2ccc(Br)s2)C1c1ccc(Br)s1 (stereo not drawn)")
"bucket 2"
>>> cat("N#CC1=C(N)OC2=C(CN(C(=O)c3cccs3)C/C2=C\\c2ccc(Br)o2)C1c1ccc(Br)o1 (stereo not drawn)")
"bucket 2"

Query: Each compound maps to one class by inhibition at 16 µg/mL. Which class for COC(=O)C1=C(N)OC2=C(CN(C(=O)c3cccs3)C/C2=C\c2ccc(Br)o2)C1c1ccc(Br)o1 (stereo not drawn) ?
Result: bucket 3

Query: Which class does Cc1ccc(/C=C2\CN(C(=O)c3cccs3)CC3=C2OC(N)=C(C#N)C3c2ccc(C)o2)o1 (stereo not drawn) fall in?
Result: bucket 1

Query: The entry to classify is CN1CC2=C(OC(N)=C(C#N)C2c2ccc(Br)o2)/C(=C/c2ccc(Br)o2)C1 (stereo not drawn) ; which class holds it?
Result: bucket 3

Query: Which inhibition at 16 µg/mL band matches Cc1ccc(/C=C2\CN(C(=O)c3cccs3)CC3=C2OC(N)=C(C#N)C3c2ccc(C)s2)s1 (stereo not drawn) ?
Result: bucket 1

Query: Exam item: assign COC(=O)C1=C(N)OC2=C(CN(C(=O)c3ccco3)C/C2=C\c2cccs2)C1c1cccs1 (stereo not drawn) to the correct category.
Result: bucket 1

* * *

Tested on: Sclerotinia sclerotiorum
Test: Fungicidal activity against Sclerotinia sclerotiorum assessed as fungal inhibitory rate at 16 ug/ml relative to control
Type: functional
Measured Parameter: inhibition at 16 µg/mL (%)
Answers are plain numbers, in %.

>>> experimental_result("COC(=O)C1=C(N)OC2=C(CN(C(=O)c3ccco3)C/C2=C\\c2ccc(Br)o2)C1c1ccc(Br)o1 (stereo not drawn)")
82.7
>>> experimental_result("N#CC1=C(N)OC2=C(CN(C(=O)c3cccs3)C/C2=C\\c2ccc(Br)o2)C1c1ccc(Br)o1 (stereo not drawn)")
62.7
>>> experimental_result("COC(=O)C1=C(N)OC2=C(CN(C(=O)c3cccs3)C/C2=C\\c2ccc(Br)o2)C1c1ccc(Br)o1 (stereo not drawn)")
80
>>> experimental_result("Cc1ccc(/C=C2\\CN(C(=O)c3ccco3)CC3=C2OC(N)=C(C#N)C3c2ccc(C)o2)o1 (stereo not drawn)")
46.2
>>> experimental_result("CN1CC2=C(OC(N)=C(C#N)C2c2ccc(Br)s2)/C(=C/c2ccc(Br)s2)C1 (stereo not drawn)")
60.7
>>> experimental_result("N#CC1=C(N)OC2=C(CN(C(=O)c3cccs3)C/C2=C\\c2ccco2)C1c1ccco1 (stereo not drawn)")
58.5
>>> experimental_result("Cc1ccc(/C=C2\\CN(C)CC3=C2OC(N)=C(C#N)C3c2ccc(C)s2)s1 (stereo not drawn)")
58.6
>>> experimental_result("COC(=O)C1=C(N)OC2=C(CN(C)C/C2=C\\c2ccc(Cl)s2)C1c1ccc(Cl)s1 (stereo not drawn)")
49.6

Fill in inhibition at 16 µg/mL for each of the 8 compounds listed.
1. N#CC1=C(N)OC2=C(CN(C(=O)c3ccco3)C/C2=C\c2ccc(Br)s2)C1c1ccc(Br)s1 (stereo not drawn)
2. N#CC1=C(N)OC2=C(CN(C(=O)c3ccco3)C/C2=C\c2ccc(Br)o2)C1c1ccc(Br)o1 (stereo not drawn)
3. N#CC1=C(N)OC2=C(CN(C(=O)c3cccs3)C/C2=C\c2ccc(Br)s2)C1c1ccc(Br)s1 (stereo not drawn)
4. Fc1ccc([C@@]2(Cn3cncn3)O[C@@H]2c2ccccc2Cl)cc1
5. CN1CC2=C(OC(N)=C(C#N)C2c2ccc(Cl)s2)/C(=C/c2ccc(Cl)s2)C1 (stereo not drawn)
6. COC(=O)C1=C(N)OC2=C(CN(C(=O)c3cccs3)C/C2=C\c2ccc(Br)s2)C1c1ccc(Br)s1 (stereo not drawn)
7. COC(=O)C1=C(N)OC2=C(CN(C(=O)c3ccco3)C/C2=C\c2ccc(Br)s2)C1c1ccc(Br)s1 (stereo not drawn)
8. N#CC1=C(N)OC2=C(CN(C(=O)c3cccs3)C/C2=C\c2ccc(Cl)s2)C1c1ccc(Cl)s1 (stereo not drawn)

Result:
[31.6, 55.2, 48.9, 100, 64.9, 68.5, 71.6, 50.8]

Would you be so kind as to report inhibition at 16 µg/mL for each listed record?
1. CN1CC2=C(OC(N)=C(C#N)C2c2ccc(Br)o2)/C(=C/c2ccc(Br)o2)C1 (stereo not drawn)
2. COC(=O)C1=C(N)OC2=C(CN(C)C/C2=C\c2ccc(Br)o2)C1c1ccc(Br)o1 (stereo not drawn)
3. Cc1ccc(/C=C2\CN(C)CC3=C2OC(N)=C(C#N)C3c2ccc(C)o2)o1 (stereo not drawn)
4. COC(=O)C1=C(N)OC2=C(CN(C(=O)c3cccs3)C/C2=C\c2ccc(Cl)s2)C1c1ccc(Cl)s1 (stereo not drawn)
5. N#CC1=C(N)OC2=C(CN(C(=O)c3ccco3)C/C2=C\c2ccc(Cl)s2)C1c1ccc(Cl)s1 (stereo not drawn)

Result:
87.2
77.4
81.6
74.1
53.5

Record inhibition at 16 µg/mL for all entries; do not skip any.
1. N#CC1=C(N)OC2=C(CN(C(=O)c3ccco3)C/C2=C\c2cccs2)C1c1cccs1 (stereo not drawn)
2. COC(=O)C1=C(N)OC2=C(CN(C)C/C2=C\c2ccc(Br)s2)C1c1ccc(Br)s1 (stereo not drawn)
3. N#CC1=C(N)OC2=C(CN(C(=O)c3cccs3)C/C2=C\c2cccs2)C1c1cccs1 (stereo not drawn)
4. COC(=O)C1=C(N)OC2=C(CN(C(=O)c3ccco3)C/C2=C\c2cccs2)C1c1cccs1 (stereo not drawn)
5. COC(=O)C1=C(N)OC2=C(CN(C(=O)c3cccs3)C/C2=C\c2cccs2)C1c1cccs1 (stereo not drawn)
6. COC(=O)C1=C(N)OC2=C(CN(C)C/C2=C\c2cccs2)C1c1cccs1 (stereo not drawn)
7. COC(=O)C1=C(N)OC2=C(CN(C)C/C2=C\c2ccco2)C1c1ccco1 (stereo not drawn)
8. N#CC1=C(N)OC2=C(CN(C(=O)c3ccco3)C/C2=C\c2ccco2)C1c1ccco1 (stereo not drawn)

Result:
[27.9, 38.3, 37.6, 43.4, 40.5, 57.2, 73.7, 65.4]

Field: inhibition at 16 µg/mL. Fill in for each record below.
1. CN1CC2=C(OC(N)=C(C#N)C2c2cccs2)/C(=C/c2cccs2)C1 (stereo not drawn)
2. Cc1ccc(/C=C2\CN(C(=O)c3cccs3)CC3=C2OC(N)=C(C#N)C3c2ccc(C)s2)s1 (stereo not drawn)
3. Cc1ccc(/C=C2\CN(C(=O)c3cccs3)CC3=C2OC(N)=C(C#N)C3c2ccc(C)o2)o1 (stereo not drawn)
4. COC(=O)C1=C(N)OC2=C(CN(C(=O)c3ccco3)C/C2=C\c2ccco2)C1c1ccco1 (stereo not drawn)

Result:
1. 68.8
2. 21.1
3. 24.7
4. 85

Where do these numbers come from? They come from ChEMBL document CHEMBL5506031.
